Tested on: M19-MEL melanoma
Experiment: NCI tumour cell line growth inhibition, 48 h
Let's look at some compounds and their measured TGI.

Use the examples below as a reference point.
• COc1ccc(C=C(c2ccc(OCc3ccccc3)cc2)c2ccc(OCc3ccccc3)cc2)cc1 = > 100 µM
• C[n+]1ccc(-c2c3nc(c(-c4cc[n+](C)cc4)c4ccc([n-]4)c(-c4cc[n+](C)cc4)c4nc(c(-c5cc[n+](C)cc5)c5ccc2[n-]5)C=C4)C=C3)cc1.[I-].[Zn+2] = 28.3 µM
• Clc1cc2n[se]nc2cc1Cl = > 100 µM

Tested on M19-MEL melanoma: COc1cc2c(cc1OC)C(=O)Cc1ccc(OC)c(OC)c1CN(C)CC2 . Observed TGI: > 100 µM

Tested on M19-MEL melanoma: COc1ccccc1/C=C1\CCC(CCN2CCOCC2)C1=O (stereo not given) . Observed TGI: > 100 µM

* * *

Tested on: PC-3 prostate
Assay: NCI tumour cell line growth inhibition, 48 h
measuredEndpoint: TGI

• CC(=O)NNC(=O)C1CCCCN1 (configuration not stated) = > 100 µM
• O=c1[nH]cnc2c1ncn2[C@@H]1C[C@H]1CO = > 100 µM
• C=CCNS(=O)(=O)c1ncnc2nc[nH]c12 = > 100 µM

Note: attention shifts to another entry.
Tested on PC-3 prostate: O=C(/C=C/c1ccccc1)N1CCCCC1 . Observed TGI: > 100 µM

* * *

Test system: IGROV1 ovarian
Assay: NCI tumour cell line growth inhibition, 48 h
Let's look at some compounds and their measured TGI.

Use the examples below as a reference point.
- COC1CC(NC(=O)C(F)(F)F)C(OC(C)=O)C(C)O1 (centres undefined): > 100 µM
- CC(=O)OCC(OC(C)=O)C(OC(C)=O)C(OC(C)=O)C(C=NN(C(C)=O)S(=O)(=O)c1ccc(/C=C2\NC(=O)NC2=O)cc1)OC(C)=O (centres undefined): > 100 µM
- CN1Cc2cc3c(cc2-c2ccccc21)OCO3: > 100 µM

TGI reading for COc1ccccc1/C=C1\CCC(CCN2CCOCC2)C1=O (centres undefined) : > 100 µM

TGI reading for Cc1nc2c(o1)C(=O)c1ccccc1C2=Nc1ccc(N2CCOCC2)cc1 : 30.4 µM

TGI reading for O=C1CC(O)(c2ccccc2)C(c2ccccc2)=C1c1ccccc1 (centres undefined) : > 100 µM

TGI reading for O=C(NCc1ccco1)c1ccc(NC2=C(Cl)C(=O)N(Cc3ccccc3)C2=O)cc1 : 35.2 µM

TGI reading for Cc1cc(C)nc(SCCc2cccc[n+]2C)n1 : > 100 µM

* * *

Let's look at some compounds and their measured TGI.
System: EKVX NSCLC
Assay: NCI tumour cell line growth inhibition, 48 h
Lab book: enter the figure in µM, no units written.

Use the examples below as a reference point.
- C[C@]12CC[C@H](O)CC1=CC[C@@H]1[C@@H]2CC[C@]2(C)C(=N/O)/C(=C/c3ccc([N+](=O)[O-])cc3)C[C@@H]12: 7.37
- O=S(=O)(Nc1cc(Cl)ccc1Cl)c1ccc(-c2cnc(C3CC3)o2)cc1: 85.4

TGI reading for CCCCC(=O)OC[n+]1ccc2c(C)c3[nH]c4ccccc4c3c(C)c2c1 : 3.04

* * *

Test system: HOP-62 NSCLC
Test: NCI tumour cell line growth inhibition, 48 h
measuredEndpoint: TGI

Use the examples below as a reference point.
* CCc1ccc2c(c1)N(CCO)C1=C(C(=O)OC1)C2c1cccc(Cl)c1 (stereo unspecified) | 15.8 µM
* COc1cc2c(cc1OC)C(=O)Cc1ccc(OC)c(OC)c1CN(C)CC2 | > 100 µM
* Br/C(=N\Nc1nn[nH]n1)c1ccncc1 | > 100 µM
* O=C(NN=C1CCCCC1)c1[nH]c2ccc(F)cc2c1-c1ccccc1 | > 100 µM
* CCOC(=O)C(NCc1cccc(C(F)(F)F)c1)(NC(=O)CC)C(F)(F)F (stereo unspecified) | > 100 µM

Tested on HOP-62 NSCLC: Clc1ccc(-c2ccc(-c3nn4c(CNc5ccccc5)nnc4s3)o2)c(Cl)c1 . Observed TGI: > 100 µM

Tested on HOP-62 NSCLC: COc1cc(OC)c(NC(=O)c2cc3ccccc3cc2O)cc1Cl . Observed TGI: 6.84 µM

Tested on HOP-62 NSCLC: Cc1ccc(-c2nc(-c3cnccn3)n(C3OC(CO)C(O)C(O)C3O)n2)cc1 (stereo unspecified) . Observed TGI: > 100 µM

Tested on HOP-62 NSCLC: N#CS.N=C=S.N=C=S.[Cu+2].[NH2-].[NH2-].[NH2-].[NH2-].c1ccc2ncccc2c1 . Observed TGI: > 100 µM

Tested on HOP-62 NSCLC: COc1ccc2c(c1OC)OCC(CN(C)C)C2=O (stereo unspecified) . Observed TGI: > 88.7 µM

Tested on HOP-62 NSCLC: CCC1C(=O)C(O)[C@H]2[C@@H]3C(O)CC4=CC(=O)CC[C@]4(C)[C@H]3CC[C@]12C (stereo partly specified) . Observed TGI: > 50 µM
